Tested on: SK-MEL-2
PROTOCOL_NOTES: NCI tumour cell line growth inhibition, 48 h
Activity calls are given as the source filed them. No stated cut-off is given here; in the data, active = GI50 up to about 1.1 µM and inactive = higher.
Let's look at some compounds and their measured GI50.
QUANTITY_NAME: GI50

• Fc1cccc(Cl)c1C1SCc2nc3ccccc3n21 (stereo unspecified) = 21.1 µM (inactive)
• O=C(c1ccccc1)c1c(CC(O)c2ccncc2)n(C(=O)c2ccccc2)c2ccccc12 (stereo unspecified) = 16 µM (inactive)
• O=C1/C(=C/c2cc3c(=O)c4ccccc4sc3s2)NC(=S)N1c1ccccc1 = 78.7 µM (inactive)
• O=c1/c(=C/c2ccc(-c3ccc(Cl)cc3Cl)o2)sc2n1[C@@H](c1ccc3c(c1)OCO3)C=C(c1cc(F)c(Cl)cc1Cl)N=2 = 26 µM (inactive)
• COC1O[C@H]2[C@H]3[C@@H]1[C@@H](OS(=O)(=O)c1ccc(C)cc1)C(=O)N3C[C@H]2O (stereo partly specified) = > 100 µM (inactive)
• COc1ccc(N2C(=O)CC(=O)N(C(=O)COc3ccc(OCC(=O)N4C(=O)CC(=O)N(c5ccc(OC)cc5)C4=S)cc3)C2=S)cc1 = 23.9 µM (inactive)
• O=C(/C=C1\Nc2ccccc2C(=O)N1c1ccccc1Cl)c1ccccc1 = > 100 µM (inactive)
• COc1ccc(-c2sc(Br)c3c2C(=O)C2OC(=O)NC32)cc1OC (stereo unspecified) = > 100 µM (inactive)
• COC(=O)c1ccccc1C#CC#Cc1ccccc1C(=O)OC = > 10 µM (inactive)
• FC(F)(F)c1ccc2c(c1)nc(Cc1ccc(Cl)cc1)n2CC1CCCN2CCCCC12 (stereo unspecified) = 13.6 µM (inactive)
• Cc1c(Cl)ccc2c1NC(=O)C2(O)CC(=O)c1ccc2ccccc2c1 (stereo unspecified) = > 100 µM (inactive)
• C/C(=N/NC(=S)Nc1ccccc1C)c1ccccn1 = 2.65 µM (inactive)
• NC(Cc1c[nH]c(I)n1)C(=O)O (stereo unspecified) = > 100 µM (inactive)
• C[C@]12CC[C@H](O)CC1=CC[C@@H]1[C@@H]2CC[C@]2(C)NC(=O)/C(=C\c3ccccc3)C[C@@H]12 = 12.6 µM (inactive)
• N#C[BH2-][n+]1cn(C2CC(OP(=O)(O)OCC3OC(n4ccc(N)nc4=O)CC3O)C(CO)O2)c2nc(N)[nH]c(=O)c21 (stereo unspecified) = > 100 µM (inactive)
• COC(=O)c1ccc2c(c1)CC1(C2)Cc2ccccc2C1=O (stereo unspecified) = 27.4 µM (inactive)
• O=C1/C(=C\c2cccc(Oc3ccccc3)c2)S(=O)(=O)C(c2ccccc2)N1c1cc(Cl)ccc1Cl (stereo unspecified) = 28.2 µM (inactive)
• COC(=O)Nc1nc(=O)c2cc(OC)c(OC)cc2[nH]1 = > 100 µM (inactive)
• CCCCN(CCCC)C(=O)C(=O)C(C(=O)c1ccc(OC)cc1)c1ccc(OC)cc1 (stereo unspecified) = > 100 µM (inactive)
• COc1ccc(C2(C3c4cc(OC)c(OC)cc4CCN3C)SCCCS2)cc1O (stereo unspecified) = > 100 µM (inactive)
• C[C@@H](c1ccccc1)n1c(N)c(-c2ccccn2)c2ccc([N+](=O)[O-])cc2c1=O = > 100 µM (inactive)
• CC1(C)SC2C(NC(=O)Cc3ccccc3)C(=O)N2C1C(=O)O (stereo unspecified) = > 100 µM (inactive)
• COc1ccc2c(C)cc(N/N=C/c3ccc(OC)c4ccccc34)nc2c1 = 19.2 µM (inactive)
• CC(C)(C)C(C#N)(C#N)c1ccc(C(C#N)(C#N)C(C)(C)C)nn1 = > 100 µM (inactive)
• O=C1NC(Cc2c[nH]c3ccccc23)C(=O)N2C(c3ccccc3)c3[nH]c4ccccc4c3C[C@@H]12 (stereo partly specified) = 23.8 µM (inactive)
• O=c1c2ncn(C3CCCO3)c2n(-c2ccccc2)c(=S)n1-c1ccccc1 (stereo unspecified) = > 100 µM (inactive)
